The following compounds are listed with their measured gamma-GTP values.
- Species on record: Rattus norvegicus
- assay.overview: Open TG-GATES - Regimen: Daily Repeat
- Type: toxicity, organism-based, Sprague-Dawley
- Parameters: regimen Daily Repeat, gender Male, age 6 weeks
- measurement.conditions: in vivo, po, 1000 mg/kg, […], tissue Plasma, route gavage, dose level High, time 14 day
parameter: gamma-GTP (IU/L)

NC(N)=Nc1nc(CSCCC(N)=NS(N)(=O)=O)cs1 ... 1.6
CC(C)OC(=O)C(C)(C)Oc1ccc(C(=O)c2ccc(Cl)cc2)cc1 [FENOFIBRATE] ... 1
COc1ccc2[nH]c([S+]([O-])Cc3ncc(C)c(OC)c3C)nc2c1 (stereo unspecified) ... 2.2
CCOC(=O)CCC(=O)O[C@H]1[C@H](O[C@@H]2[C@@H](C)[C@H](O[C@H]3C[C@@](C)(OC)[C@@H](O)[C@H](C)O3)[C@@H](C)C(=O)O[C@H](CC)[C@@](C)(O)[C@H](O)[C@@H](C)C(=O)[C@H](C)C[C@@]2(C)O)O[C@H](C)C[C@@H]1N(C)C [ERYTHROMYCIN ETHYLSUCCINATE] ... 1.8
CCOc1ccc(NC(=O)CC(C)O)cc1 (stereo unspecified) ... 1
COC1=CC(=O)C[C@@H](C)[C@]12Oc1c(Cl)c(OC)cc(OC)c1C2=O ... 1

---

The following compounds are listed with their measured Fbg values.
- Species on record: Rattus norvegicus
- assay.overview: Open TG-GATES - Regimen: Single
- Type: toxicity, organism-based, Sprague-Dawley
- Parameters: regimen Single, gender Male, age 6 weeks
- measurement.conditions: in vivo, po, 0 mg/kg, 9 h, tissue Blood, route gavage, dose level Control
parameter: Fbg (mg/dL)

CCCNC(=O)NS(=O)(=O)c1ccc(Cl)cc1 [CHLORPROPAMIDE] ... 294.6
CN(C)CCCN1c2ccccc2CCc2ccc(Cl)cc21 [CLOMIPRAMINE] ... 245
Cc1ccc(C)c(OCCCC(C)(C)C(=O)O)c1 [GEMFIBROZIL] ... 302.2
CC1=C(/C=C/C(C)=C/C=C/C(C)=C/CO)C(C)(C)CCC1 [RETINOL] ... 303.2
CN(C)CCN(Cc1cccs1)c1ccccn1 ... 296.8
O=C(CCCN1CCC(O)(c2ccc(Cl)cc2)CC1)c1ccc(F)cc1 [HALOPERIDOL] ... 205.4
COc1ccc2[nH]c([S+]([O-])Cc3ncc(C)c(OC)c3C)nc2c1 (stereo unspecified) [OMEPRAZOLE] ... 212.8
CC(C)OC(=O)C(C)(C)Oc1ccc(C(=O)c2ccc(Cl)cc2)cc1 [FENOFIBRATE] ... 292.6
CCOc1ccc(NC(=O)CC(C)O)cc1 (stereo unspecified) [BUCETIN] ... 299.8
NC(N)=Nc1nc(CSCCC(N)=NS(N)(=O)=O)cs1 [FAMOTIDINE] ... 228.2
C[C@@H]1C[C@H]2[C@@H]3CCC4=CC(=O)C=C[C@]4(C)[C@@]3(F)[C@@H](O)C[C@]2(C)[C@@]1(O)C(=O)CO [DEXAMETHASONE] ... 233.2

---

The following compounds are listed with their measured LIVER values.
- Organism: Rattus norvegicus
- assay.overview: Open TG-GATES - Regimen: Single
- Type: toxicity, organism-based, Sprague-Dawley
- Set-up: regimen Single, gender Male, age 6 weeks
- measurement.conditions: in vivo, po, 300 mg/kg, 6 h, tissue Liver, route gavage, dose level Middle
parameter: LIVER (g)

NC(N)=Nc1nc(CSCCC(N)=NS(N)(=O)=O)cs1 [FAMOTIDINE] ... 9
COc1ccc2[nH]c([S+]([O-])Cc3ncc(C)c(OC)c3C)nc2c1 (centres undefined) [OMEPRAZOLE] ... 9.4
COC1=CC(=O)C[C@@H](C)[C@]12Oc1c(Cl)c(OC)cc(OC)c1C2=O [GRISEOFULVIN] ... 9.5
CCOC(=O)CCC(=O)O[C@H]1[C@H](O[C@@H]2[C@@H](C)[C@H](O[C@H]3C[C@@](C)(OC)[C@@H](O)[C@H](C)O3)[C@@H](C)C(=O)O[C@H](CC)[C@@](C)(O)[C@H](O)[C@@H](C)C(=O)[C@H](C)C[C@@]2(C)O)O[C@H](C)C[C@@H]1N(C)C [ERYTHROMYCIN ETHYLSUCCINATE] ... 9.2

---

- Species on record: Rattus norvegicus
- assay.overview: Open TG-GATES - Regimen: Single
- Type: toxicity, organism-based, Sprague-Dawley
- Parameters: regimen Single, gender Male, age 6 weeks
- measurement.conditions: in vivo, po, 10 mg/kg, 9 h, tissue Plasma, route gavage, dose level Low
The following molecules are listed with their measured TC values.
parameter: TC (mg/dL)

CN(C)CCN(Cc1cccs1)c1ccccn1 ... 67.2
CC(C)OC(=O)C(C)(C)Oc1ccc(C(=O)c2ccc(Cl)cc2)cc1 [FENOFIBRATE] ... 70.8
CC1=C(/C=C/C(C)=C/C=C/C(C)=C/CO)C(C)(C)CCC1 ... 69.2
CN(C)CCCN1c2ccccc2CCc2ccccc21 ... 78.4
CN(C)CCCN1c2ccccc2CCc2ccc(Cl)cc21 ... 75.2

---

- Species on record: Rattus norvegicus
- assay.overview: Open TG-GATES - Regimen: Single
- Format: toxicity, organism-based, Sprague-Dawley
- Design: regimen Single, gender Male, age 6 weeks
- measurement.conditions: in vivo, po, 10 mg/kg, 6 h, tissue Plasma, route gavage, dose level Low
parameter: TC (mg/dL)

CN(C)CCN(Cc1cccs1)c1ccccn1 ... 70.6
CN(C)CCCN1c2ccccc2CCc2ccccc21 [IMIPRAMINE] ... 74.8
CC1=C(/C=C/C(C)=C/C=C/C(C)=C/CO)C(C)(C)CCC1 [RETINOL] ... 74.4
CC(C)OC(=O)C(C)(C)Oc1ccc(C(=O)c2ccc(Cl)cc2)cc1 [FENOFIBRATE] ... 71.6
CN(C)CCCN1c2ccccc2CCc2ccc(Cl)cc21 [CLOMIPRAMINE] ... 83.4

---

- Species on record: Rattus norvegicus
- assay.overview: Open TG-GATES - Regimen: Daily Repeat
- Assay type: toxicity, organism-based, Sprague-Dawley
- Design: regimen Daily Repeat, gender Male, age 6 weeks
- measurement.conditions: in vivo, po, 0 mg/kg, […], tissue Blood, route gavage, dose level Control, time 14 day
The following molecules are listed with their measured Ht values.
parameter: Ht (%)

O=C(CCCN1CCC(O)(c2ccc(Cl)cc2)CC1)c1ccc(F)cc1 ... 43.8
CCOC(=O)CCC(=O)O[C@H]1[C@H](O[C@@H]2[C@@H](C)[C@H](O[C@H]3C[C@@](C)(OC)[C@@H](O)[C@H](C)O3)[C@@H](C)C(=O)O[C@H](CC)[C@@](C)(O)[C@H](O)[C@@H](C)C(=O)[C@H](C)C[C@@]2(C)O)O[C@H](C)C[C@@H]1N(C)C [ERYTHROMYCIN ETHYLSUCCINATE] ... 40.4
NNC(=O)c1ccncc1 ... 44.9

---

The following compounds are listed with their measured KIDNEY_R values.
- Organism: Rattus norvegicus
- assay.overview: Open TG-GATES - Regimen: Daily Repeat
- Assay type: toxicity, organism-based, Sprague-Dawley
- Set-up: regimen Daily Repeat, gender Male, age 6 weeks
- measurement.conditions: in vivo, po, 300 mg/kg, […], tissue Kidney, route gavage, dose level Middle, time 28 day
parameter: KIDNEY_R (g)

CCOC(=O)CCC(=O)O[C@H]1[C@H](O[C@@H]2[C@@H](C)[C@H](O[C@H]3C[C@@](C)(OC)[C@@H](O)[C@H](C)O3)[C@@H](C)C(=O)O[C@H](CC)[C@@](C)(O)[C@H](O)[C@@H](C)C(=O)[C@H](C)C[C@@]2(C)O)O[C@H](C)C[C@@H]1N(C)C [ERYTHROMYCIN ETHYLSUCCINATE] ... 1.4
COc1ccc2[nH]c([S+]([O-])Cc3ncc(C)c(OC)c3C)nc2c1 (stereo not given) ... 1.4
NC(N)=Nc1nc(CSCCC(N)=NS(N)(=O)=O)cs1 ... 1.4
CCOc1ccc(NC(=O)CC(C)O)cc1 (stereo not given) ... 1.6
COC1=CC(=O)C[C@@H](C)[C@]12Oc1c(Cl)c(OC)cc(OC)c1C2=O ... 1.3

---

- Species: Rattus norvegicus
- assay.overview: Open TG-GATES - Regimen: Daily Repeat
- Assay type: toxicity, organism-based, Sprague-Dawley
- Set-up: regimen Daily Repeat, gender Male, age 6 weeks
- measurement.conditions: in vivo, po, 0 mg/kg, 72 h, tissue Plasma, route gavage, dose level Control, time 3 day
The following compounds are listed with their measured LDH values.
parameter: LDH (IU/L)

NC(N)=Nc1nc(CSCCC(N)=NS(N)(=O)=O)cs1 ... 194
COC1=CC(=O)C[C@@H](C)[C@]12Oc1c(Cl)c(OC)cc(OC)c1C2=O ... 154
CN(C)CCCN1c2ccccc2CCc2ccccc21 ... 64.8
CN(C)CCN(Cc1cccs1)c1ccccn1 ... 210.8
COc1ccc2[nH]c([S+]([O-])Cc3ncc(C)c(OC)c3C)nc2c1 (stereo not drawn) ... 162.8
CCCNC(=O)NS(=O)(=O)c1ccc(Cl)cc1 [CHLORPROPAMIDE] ... 95.2
O=C(CCCN1CCC(O)(c2ccc(Cl)cc2)CC1)c1ccc(F)cc1 ... 91.8
CCOC(=O)CCC(=O)O[C@H]1[C@H](O[C@@H]2[C@@H](C)[C@H](O[C@H]3C[C@@](C)(OC)[C@@H](O)[C@H](C)O3)[C@@H](C)C(=O)O[C@H](CC)[C@@](C)(O)[C@H](O)[C@@H](C)C(=O)[C@H](C)C[C@@]2(C)O)O[C@H](C)C[C@@H]1N(C)C [ERYTHROMYCIN ETHYLSUCCINATE] ... 181.8
